tested on: HEK-293T; experiment: Multiplex assay against HEK293T; format: toxicity, cell-based; conditions: human, 48 h, 1 µM, compound concentration 1 uM, replicate 1
RECORDED_ENDPOINT: Total Cell Count

>>> df
                                   compound  measurement_target  experimental_value
0  Nc1ccc(C(=O)Nc2cccc(-c3nc(N4CCOCC4)c4oc5ncccc5c4n3)c2)cn1            HEK-293T                 183
1  COc1cc2c(NC3CCN(C(C)C)CC3)nc(N3CCC(F)(F)CC3)nc2cc1OCCCN1CCCC1            HEK-293T                 368
2  CC(C)N1CCC(C)(C)c2cc(C#Cc3ccc(C(=O)O)cc3)ccc21            HEK-293T                 389
3  CC(=O)c1cc(-c2cc(C(=O)NC3CC3)ccc2C)c2ncccn12            HEK-293T                 343
4  CCc1cc2c(cc1CC)CC(NC[C@H](O)c1ccc(O)c3[nH]c(=O)ccc13)C2 [INDACATEROL]            HEK-293T                 393
5  Nc1nc2c(c(N3CCNCC3)n1)CCC1=C2[C@@H]2CCCC[C@@H]2O1            HEK-293T                 532
6  CCn1c(-c2nonc2N)nc2cnc(Oc3cccc(NC(=O)c4ccc(OCCN5CCOCC5)cc4)c3)cc21 [GSK-269962A]            HEK-293T                 255
